Sourced from ChEMBL document CHEMBL4270563

Below, each entry is listed with its recorded IC50.
assay-system: UniProtKB P22303
Sequence (P22303 whole entry): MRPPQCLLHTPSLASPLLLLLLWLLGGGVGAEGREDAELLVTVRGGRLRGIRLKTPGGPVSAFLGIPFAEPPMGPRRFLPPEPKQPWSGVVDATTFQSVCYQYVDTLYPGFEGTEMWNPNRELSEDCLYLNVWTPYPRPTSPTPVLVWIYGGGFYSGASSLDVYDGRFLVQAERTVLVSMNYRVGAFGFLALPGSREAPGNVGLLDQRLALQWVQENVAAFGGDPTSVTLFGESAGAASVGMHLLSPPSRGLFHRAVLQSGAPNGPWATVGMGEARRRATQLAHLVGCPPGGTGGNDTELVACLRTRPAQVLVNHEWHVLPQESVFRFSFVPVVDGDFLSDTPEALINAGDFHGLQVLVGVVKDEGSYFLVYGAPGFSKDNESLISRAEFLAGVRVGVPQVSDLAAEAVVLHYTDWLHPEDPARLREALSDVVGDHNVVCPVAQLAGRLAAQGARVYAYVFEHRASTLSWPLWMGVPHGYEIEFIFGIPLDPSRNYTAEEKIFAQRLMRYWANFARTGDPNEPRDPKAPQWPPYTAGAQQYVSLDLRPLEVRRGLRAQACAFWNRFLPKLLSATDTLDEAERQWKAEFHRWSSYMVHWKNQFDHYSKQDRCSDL
experiment-notes: Inhibition of recombinant human AChE expressed in HEK293 cells using acetylthiocholine iodide as substrate pretreated for 5 mins followed by substrate addition and measured for 5 mins by Ellman's method
# unit: nM | format: bare number

Please review the following examples before continuing.
smiles-data: COc1cc2oc(C(=O)OCC3CCN(Cc4ccccc4)CC3)cc(=O)c2cc1OC
quantitative-result: 300

smiles-data: O=C(NCCC1CCN(Cc2ccccc2)CC1)c1cc(=O)c2cc(O)ccc2[nH]1
quantitative-result: 300

Please indicate recorded IC50 of COc1ccc2[nH]c(C(=O)NCCC3CCN(Cc4ccccc4)CC3)cc(=O)c2c1 measured with UniProtKB P22303.
880
